Molecular target: c-Met kinase domain recombinant protein (Homo sapiens)
Construct: 50 μL diluted solution of c-Met kinase domain recombinant protein in reaction buffer was added to initiate the reaction
Test: biochemical
Conditions: read-out: Average inhibition rate at 10 μM (%)
endpointName: inhibition at 10 µM (%)
Expressed in %, but write only the number.

Here are 5 compounds together with their reported answers.
compound=CC(C)Oc1ccc(-c2ccc3ncc(S(=O)(=O)n4ncc5ncc(-c6cnn(C)c6)cc54)n3c2)cc1 recordedmeasurement=77.4
compound=Cn1cc(-c2cnc3ccn(S(=O)(=O)c4ccccc4[N+](=O)[O-])c3c2)cn1 recordedmeasurement=88.1
compound=CCN1CCC(n2cc(-c3cnc4cnn(S(=O)(=O)c5cnc6ccccn56)c4c3)cn2)CC1 recordedmeasurement=74.1
compound=COc1ccc(-c2ccc3ncc(S(=O)(=O)n4ncc5ncc(-c6cnn(C)c6)cc54)n3c2)cc1OC recordedmeasurement=68.3
compound=Cn1cc(-c2cnc3cnn(S(=O)(=O)c4cnc5ccc(-c6cccc(F)c6)cn45)c3c2)cn1 recordedmeasurement=77.8

# get_value(readout='inhibition at 10 µM', item= `Cn1cc(-c2cnc3cnn(S(=O)(=O)c4cnc5ccc(-c6ccc(F)cc6)cn45)c3c2)cn1` )
80.2

// repeat for `CN1CCN(C(=O)c2ccc(-c3ccc4ncc(S(=O)(=O)n5ncc6ncc(-c7cnn(C)c7)cc65)n4c3)cc2)CC1` and report
80.6

Same again, this time with `CS(=O)(=O)Nc1ccc(-c2cnc3cnn(S(=O)(=O)c4cnc5ccccn45)c3c2)cc1`
61.3

What do you get for `CC(C)(C)OC(=O)N1CCC(n2cc(-c3cnc4cnn(S(=O)(=O)c5cnc6ccc(-c7cnn(C8CCN(C(=O)OC(C)(C)C)CC8)c7)cn56)c4c3)cn2)CC1` ?
62

Quick one: `Cn1cc(-c2cnc3cnn(S(=O)(=O)c4cnc5ccc(Cl)cn45)c3c2)cn1`
70.5

Quick one: `Cn1cc(-c2cnc3cnn(S(=O)(=O)c4ccccc4C(F)(F)F)c3c2)cn1`
74.3

What do you have for `Cn1cc(-c2cnc3cnn(S(=O)(=O)c4cnc5ccc(-c6ccc7c(c6)OCO7)cn45)c3c2)cn1` ?
74.3

----------
Reported inhibition at 1 µM values follow for various compounds
Biological target: c-Met kinase domain recombinant protein (Homo sapiens, UniProt P08581)
Construct: 50 μL diluted solution of c-Met kinase domain recombinant protein in reaction buffer was added to initiate the reaction
Sequence (P08581 1078-1345 limits assumed): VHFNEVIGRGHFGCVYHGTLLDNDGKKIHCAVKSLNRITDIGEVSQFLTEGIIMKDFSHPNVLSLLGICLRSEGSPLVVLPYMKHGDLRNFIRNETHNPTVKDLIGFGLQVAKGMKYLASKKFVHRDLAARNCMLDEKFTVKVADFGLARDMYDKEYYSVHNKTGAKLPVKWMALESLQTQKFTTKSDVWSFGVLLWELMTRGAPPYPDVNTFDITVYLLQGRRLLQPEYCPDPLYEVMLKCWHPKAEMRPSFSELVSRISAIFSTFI
Assay: biochemical
Settings: read-out: Average inhibition rate at 1 μM (%)
Write it as a number; the unit % goes unstated.

Examples with their reported inhibition at 1 µM follow.
compound=CNC(=O)c1ccc(-c2ccc3ncc(S(=O)(=O)n4ncc5ncc(-c6cnn(C)c6)cc54)n3c2)cc1F endpointname="inhibition at 1 µM" recordedmeasurement=100
compound=Cn1cc(-c2ccc3ncc(S(=O)(=O)n4ncc5ncc(-c6ccc(CN7CCOCC7)cc6)cc54)n3c2)cn1 endpointname="inhibition at 1 µM" recordedmeasurement=92.1
compound=CC(=O)c1ccc(-c2cnc3cnn(S(=O)(=O)c4cnc5ccccn45)c3c2)cc1 endpointname="inhibition at 1 µM" recordedmeasurement=57.4

Recorded inhibition at 1 µM of `Cn1cc(-c2cnc3cnn(S(=O)(=O)c4c(Cl)nc5sccn45)c3c2)cn1` , please.
60.5

And the next one, `Cc1ccc(-c2ccc3ncc(S(=O)(=O)n4ncc5ncc(-c6cnn(C)c6)cc54)n3c2)cc1` ?
83

Then this compound: `CC(C)(C)OC(=O)N1CCC(n2cc(-c3cnc4cnn(S(=O)(=O)c5cnc6ccc(Cl)cn56)c4c3)cn2)CC1`
64.6

// query: `CN(C)C(=O)c1ccc(-c2ccc3ncc(S(=O)(=O)n4ncc5ncc(-c6cnn(C)c6)cc54)n3c2)cc1`
72.8

Query `Cn1cc(-c2cnc3cnn(S(=O)(=O)c4cnc5ccc(-c6cnn(C7CCN(C(=O)OC(C)(C)C)CC7)c6)cn45)c3c2)cn1` next
75.5
